The reported measurements were obtained from patent US7479478B2.

# Tgt: human PTH-1 receptors (Homo sapiens)
# Construct: expressed in transfected cells
# Test Protocol: Intracellular cAMP accumulation (adenylyl cyclase, AC, activation) in HKRK B7 cells
# Format: cell-based
# Settings: HKRK B7 cells
No end group written: not given here.
Attribute Measured: EC50 (nM)

> print(dat)
                                  substance  observed
1  SVSEIQLMHNLGKHLNSMERVEWLRKKL-NH2 [hPTH-(1-28)]         1

----------
# Tgt: human PTH-1 receptors (Homo sapiens, UniProt Q03431)
# Construct: expressed in transfected cells
# Sequence (Q03431 27-593): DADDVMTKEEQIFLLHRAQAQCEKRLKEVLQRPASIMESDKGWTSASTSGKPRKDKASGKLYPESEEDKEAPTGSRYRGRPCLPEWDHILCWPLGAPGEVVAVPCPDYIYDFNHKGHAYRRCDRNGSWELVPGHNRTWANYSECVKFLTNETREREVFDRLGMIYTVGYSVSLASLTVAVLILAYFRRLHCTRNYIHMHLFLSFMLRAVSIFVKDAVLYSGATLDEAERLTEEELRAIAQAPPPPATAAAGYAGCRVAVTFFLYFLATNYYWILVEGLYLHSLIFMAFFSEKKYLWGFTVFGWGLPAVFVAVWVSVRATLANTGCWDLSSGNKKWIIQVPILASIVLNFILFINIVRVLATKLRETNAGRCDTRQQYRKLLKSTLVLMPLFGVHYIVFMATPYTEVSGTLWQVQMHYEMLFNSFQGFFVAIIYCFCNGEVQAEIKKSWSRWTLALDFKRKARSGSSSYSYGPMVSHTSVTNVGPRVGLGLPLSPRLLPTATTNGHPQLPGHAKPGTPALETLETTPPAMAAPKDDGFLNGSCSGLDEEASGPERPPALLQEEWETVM
# Test Protocol: Radioligand competition binding with 125I-[Nle8,21,Tyr34]rat PTH-(1-34) in HKRK B7 cells
# Settings: read-out: apparent IC50 for binding
No end group written: not given here.
Attribute Measured: IC50 (nM)

> print(dat)
                                  substance  observed
1  SVSEIQLMHNLGKHLNSMRRVEWLRKKL-NH2 [[Arg^19]hPTH-(1-28)]       100
2  SVSEIQLMHNLGKHLNSMERVEWLRKKL-NH2 [hPTH-(1-28)]      1000

----------
# Tgt: human PTH-1 receptors (Homo sapiens, UniProt Q03431)
# Construct: expressed in transfected cells
# Test Protocol: PLC activation (IP3 formation) in HKRK B7 cells
# Assay type: cell-based
# Settings: HKRK B7 cells; read-out: EC50 for PLC activation (IP3 formation)
No end group written: not given here.
Attribute Measured: EC50 (nM)

> print(dat)
                                  substance   u  observed
1  AVSEIQLMHNLGKHLNSMERVEWLRKKL-NH2 [[Ala^1]hPTH-(1-28)]  nM      1000
2  AVSEIQLMHNLGKHLNSMRRVEWLRKKL-NH2 [[Ala^1,Arg^19]hPTH-(1-28)]  nM       200
3  SVSEIQLMHNLGKHLNSMRRVEWLRKKL-NH2 [[Arg^19]hPTH-(1-28)]  nM       300

----------
# Tgt: human PTH-1 receptors (Homo sapiens, UniProt Q03431)
# Construct: expressed in transfected cells
# Test Protocol: PLC activation (IP3 formation) in HKRK B7 cells
# Type: cell-based
# Settings: HKRK B7 cells; read-out: EC50 for PLC activity
No end group written: not given here.
Attribute Measured: EC50 (µM)

> print(dat)
                                  substance  observed
1  SVSEIQLMHNLGKHLNSMERVEWLRKKL-NH2 [hPTH-(1-28)]         6
